This section presents molecules with their documented MIC values.
Test system: Mycobacterium tuberculosis
Experiment: Antitubercular activity against Mycobacterium tuberculosis H37Rv by MABA assay
Type: functional
Please format your answer as a value with the unit trailing.

// known answers, use as guide
INSERT INTO results (molecule, experimental_value) VALUES
  ('Fc1ccc(C(c2ccccc2)c2ccc(OCCN3CCCC3)c3ccccc23)cc1 (stereo not given)', '6.25 µg/mL'),
  ('CCN(CC)CCOc1ccc(C(c2ccccc2)c2ccccc2)c2ccccc12', '6.25 µg/mL'),
  ('Fc1ccc(C(c2ccccc2)c2c(OCCN3CCCCCC3)ccc3ccccc23)cc1 (stereo not given)', '6.25 µg/mL'),
  ('CN(C)CCOc1ccc2ccccc2c1C(c1ccccc1)c1ccccc1', '6.25 µg/mL'),
  ('Fc1ccc(C(c2ccccc2)c2c(OCCN3CCCC3)ccc3ccccc23)cc1 (stereo not given)', '3.12 µg/mL'),
  ('Clc1ccc(C(c2ccccc2)c2c(OCCN3CCCCCC3)ccc3ccccc23)cc1 (stereo not given)', '3.12 µg/mL'),
  ('CN(C)CCOc1ccc2ccccc2c1C(c1ccccc1)c1ccc(F)cc1 (stereo not given)', '3.12 µg/mL'),
  ('Fc1ccc(C(c2ccccc2)c2ccc(OCCN3CCCCC3)c3ccccc23)cc1 (stereo not given)', '12.5 µg/mL');

Per the record, Fc1ccc(C(c2ccccc2)c2c(OCCN3CCCCC3)ccc3ccccc23)cc1 (stereo not given) has MIC of 6.25 µg/mL

Input `c1ccc(C(c2ccccc2)c2ccc(OCCN3CCCCC3)c3ccccc23)cc1` . Output MIC: 12.5 µg/mL
